experiment_description: recombinant barcode read abundance after kanamycin selection (control-corrected) (log10(CPM+1)); higher = more efficient recombination; sequences stand for … in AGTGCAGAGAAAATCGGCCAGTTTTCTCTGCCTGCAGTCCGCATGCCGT…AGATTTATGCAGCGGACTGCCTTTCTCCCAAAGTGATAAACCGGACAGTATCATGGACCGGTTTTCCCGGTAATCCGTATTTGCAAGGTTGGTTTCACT; site = the 11-nt target
assay_metric: recombinant barcode read abundance (log10)
Give the figure by itself; no unit, no explanation.

{"chain_sequence": "ACGAGTCCTTGGGTTCTAACCTGTTGCTT (site ACGACTCCTAA)", "readout_number": 0.161}
{"chain_sequence": "TGGTGCCCTTGGGTTCTAACCTGTTGCGG (site TGGTGCCCTCC)", "readout_number": 1.45}
{"chain_sequence": "AGCTTAGCTTGGGTTCTAACCTGTTGCCA (site AGCTTAGCTCG)", "readout_number": 0.365}
{"chain_sequence": "GAGAAGCCTTGGGTTCTAACCTGTTGCCT (site AAGAAGCCTAG)", "readout_number": 1.17}
{"chain_sequence": "CTAGTGTCTTGGGTTCTAACCTGTTGCTA (site GTAGTGTCTTA)", "readout_number": 0.0109}
{"chain_sequence": "ACAATGTCTTGGGTTCTAACCTGTTGCGG (site ACAGTGTCTCC)", "readout_number": 0.192}
{"chain_sequence": "TCTCTCGCTTGGGTTCTAACCTGTTGCCT (site CAGAATCCTCC)", "readout_number": 0.108}
{"chain_sequence": "CTGTGAACTTGGGTTCTAACCTGTTGCCT (site CGGTGAACTAG)", "readout_number": 0.216}
{"chain_sequence": "AGAACTACTTGGGTTCTAACCTGTTGCCA (site CTCGTGTCTAT)", "readout_number": 0.0514}
{"chain_sequence": "ACGGGTGCTTGGGTTCTAACCTGTTGCCT (site ACGGGTGCTAG)", "readout_number": 1.86}

// query Which recombinant barcode read abundance (log10) is reported for this sequence? GATTCTACTTGGGTTCTAACCTGTTGCGT (site GATTCTACTAC)
// result 0.0518

// query Can you share its recombinant barcode read abundance (log10)? I mean this sequence: CTTTCGCCTTGGGTTCTAACCTGTTGCCT (site CTATCGCCTAG)
// result 0.0688

* * *

experiment_description: recombinant UMI read abundance after kanamycin selection (control-corrected) (log10(CPM+1)); higher = more efficient recombination; extreme values may be limits of the assay; sequences stand for … in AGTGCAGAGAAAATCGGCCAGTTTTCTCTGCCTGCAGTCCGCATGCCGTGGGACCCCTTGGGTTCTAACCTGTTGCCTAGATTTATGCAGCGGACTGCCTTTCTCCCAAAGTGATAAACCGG…AGGTTGGTTTCACT; site = the 11-nt donor
Our labelling divides records by recombinant UMI read abundance (log10) into ranges: lower segment = under 0.1, middle segment = from 0.1 up to 2, upper segment = 2 and over

{"chain_sequence": "AGACGAGCATGGACCGGTTTTCCCGGTAATCCGTATTTGCG (site AGACGAGCTCG)", "group_label": "upper segment"}
{"chain_sequence": "GAAATGGCATGGACCGGTTTTCCCGGTAATCCGTATTTGAC (site GAAATGGCTGT)", "group_label": "middle segment"}
{"chain_sequence": "CTACAAACATGGACCGGTTTTCCCGGTAATCCGTATTTGGA (site CTACAAACTTC)", "group_label": "middle segment"}

// query For this sequence, which bin applies? CGTGTCACATGGACCGGTTTTCCCGGTAATCCGTATTTGGT (site CGTGTCACTAC)
// result middle segment

// query Hello team, could you let me know which band the following sequence falls into: CGAACATCATGGACCGGTTTTCCCGGTAATCCGTATTTGGA (site CGAACATCTTC)
// result middle segment

// query Band assignment needed for CGGGAGTCATGGACCGGTTTTCCCGGTAATCCGTATTTGCA (site CGGGAGTCTCG) please.
// result upper segment

// query For this sequence, which bin applies? TCTTGCCCATGGACCGGTTTTCCCGGTAATCCGTATTTGAT (site TCTTGCCCTAT)
// result lower segment

// query Place this sequence in its band: CGGACTTCATGGACCGGTTTTCCCGGTAATCCGTATTTGCC (site CGGACTTCTGG)
// result middle segment

// query In plain terms, what class is ACCTGATCATGGACCGGTTTTCCCGGTAATCCGTATTTGAT (site ACCTGATCTAT) ?
// result middle segment

// query Classify this sequence: CACGGCCCATGGACCGGTTTTCCCGGTAATCCGTATTTGTT (site CACGGCGCTAA)
// result lower segment

// query Consider ACACTATCATGGACCGGTTTTCCCGGTAATCCGTATTTGCG (site ACACTATCTCG) . To which recombinant UMI read abundance (log10) class does it belong?
// result upper segment

// query Pick a category. Item: TTAGCTGCATGGACCGGTTTTCCCGGTAATCCGTATTTGTG (site CTAGCTGCTCA)
// result middle segment

// query State the class of the sequence shown: ACACATCCATGGACCGGTTTTCCCGGTAATCCGTATTTGTC (site ACACATCCTGG)
// result lower segment

* * *

As shown below, each of these sequences has a reported recombinant barcode read abundance (log10) value.
experiment_description: recombinant barcode read abundance after kanamycin selection (control-corrected) (log10(CPM+1)); higher = more efficient recombination; sequences stand for … in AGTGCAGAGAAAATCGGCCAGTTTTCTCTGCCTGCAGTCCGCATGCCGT…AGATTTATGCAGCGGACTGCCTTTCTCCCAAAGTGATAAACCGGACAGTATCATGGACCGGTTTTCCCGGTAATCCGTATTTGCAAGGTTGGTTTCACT; site = the 11-nt target
Give the figure by itself; no unit, no explanation.

{"chain_sequence": "TAGTAACCTTGGGTTCTAACCTGTTGCTT (site TAGTACCCTCA)", "readout_number": 0.0923}
{"chain_sequence": "GGTTCTCCTTGGGTTCTAACCTGTTGCCT (site TGTTCTCCTAG)", "readout_number": 0.0347}

API: the following record is the query input.
// query What value of measured recombinant barcode read abundance (log10) is listed for CACATCGCTTGGGTTCTAACCTGTTGCCT (site CACATCGCTAG) ?
// result 1.08

* * *

A collection of sequences and their measured recombinant UMI read abundance (log10)
experiment_description: recombinant UMI read abundance after kanamycin selection (control-corrected) (log10(CPM+1)); higher = more efficient recombination; extreme values may be limits of the assay; sequences stand for … in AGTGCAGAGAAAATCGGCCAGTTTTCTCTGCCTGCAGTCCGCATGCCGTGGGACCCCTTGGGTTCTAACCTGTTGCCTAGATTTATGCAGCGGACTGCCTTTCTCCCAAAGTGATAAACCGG…AGGTTGGTTTCACT; site = the 11-nt donor
Answer as a number with no unit attached.

Examples with answers:
{"chain_sequence": "CTGGAAACATGGACCGGTTTTCCCGGTAATCCGTATTTGAA (site CTGGAAACTTC)", "recombinant UMI read abundance (log10)": 0.988}
{"chain_sequence": "ACAGCATCATGGACCGGTTTTCCCGGTAATCCGTATTTGCA (site ACAGCATCTTG)", "recombinant UMI read abundance (log10)": 2.11}
{"chain_sequence": "GGAAAGGCATGGACCGGTTTTCCCGGTAATCCGTATTTGCT (site AGAAAGGCTAG)", "recombinant UMI read abundance (log10)": 1.75}

// query Can you look up the measured recombinant UMI read abundance (log10) of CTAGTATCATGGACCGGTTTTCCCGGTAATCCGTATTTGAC (site ATGGTATCTGT) for me?
// result 0.837

* * *

Readings of recombinant barcode read abundance (log10) for the listed sequences
experiment_description: recombinant barcode read abundance after kanamycin selection (control-corrected) (log10(CPM+1)); higher = more efficient recombination; sequences stand for … in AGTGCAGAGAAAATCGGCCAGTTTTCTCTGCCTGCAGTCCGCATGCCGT…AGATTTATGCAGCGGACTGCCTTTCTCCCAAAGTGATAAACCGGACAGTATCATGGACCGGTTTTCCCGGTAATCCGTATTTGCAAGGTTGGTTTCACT; site = the 11-nt target
# print the numeric value only

Previously resolved entries follow.
{"chain_sequence": "ATTAATCCTTGGGTTCTAACCTGTTGCCT (site ATTAAATCTAG)", "readout_number": 0.441}
{"chain_sequence": "CGCCTGCCTTGGGTTCTAACCTGTTGCCT (site CGCCTGCCTAG)", "readout_number": 0.113}
{"chain_sequence": "CTGCGCCCTTGGGTTCTAACCTGTTGCCT (site CTGTGCCCTAG)", "readout_number": 0.567}
{"chain_sequence": "ACTCGGCCTTGGGTTCTAACCTGTTGCGA (site ACTGGGCCTTC)", "readout_number": 0.172}
{"chain_sequence": "CATAGCTCTTGGGTTCTAACCTGTTGCCT (site GATAGCTCTAG)", "readout_number": 0.176}
{"chain_sequence": "GCTAGCCCTTGGGTTCTAACCTGTTGCGG (site GCGAGCCCTAC)", "readout_number": 0.0935}
{"chain_sequence": "TAACTGTCTTGGGTTCTAACCTGTTGCTT (site TAACTGTCTAA)", "readout_number": 1.74}
{"chain_sequence": "CTATGACCTTGGGTTCTAACCTGTTGCTT (site CTATGACCTAA)", "readout_number": 1.4}
{"chain_sequence": "TCCGGTACTTGGGTTCTAACCTGTTGCAT (site TCCCGTACTAT)", "readout_number": 0.0823}
{"chain_sequence": "ACACACTCTTGGGTTCTAACCTGTTGCTG (site ACACTCCCTCA)", "readout_number": 0.0463}

// query Recorded recombinant barcode read abundance (log10) of TCCCGATCTTGGGTTCTAACCTGTTGCCT (site TCCCGATCTAG) , please.
// result 0.502

// query // returns reported recombinant barcode read abundance (log10) for input GGGTCGGCTTGGGTTCTAACCTGTTGCGA (site GGGTCGGCTCC)
// result 0.552

// query Please look up its recombinant barcode read abundance (log10): ACTTTAACTTGGGTTCTAACCTGTTGCTT (site ACTTTAACTAA)
// result 0.217

// query Entry GTGCAGACTTGGGTTCTAACCTGTTGCCT (site GTCCAGACTAG) has what recombinant barcode read abundance (log10)?
// result 0.483

// query # query: recombinant barcode read abundance (log10) of entry CGTGAGACTTGGGTTCTAACCTGTTGCCT (site CGTCAGACTAG)
// result 0.203

// query What measured recombinant barcode read abundance (log10) goes with CTAGAAGCTTGGGTTCTAACCTGTTGCGT (site CTAGAAGCTAC) ?
// result 2.52
